Molecular target: Receptor-interacting serine/threonine-protein kinase 2 (Homo sapiens) (UniProt O43353)
Sequence (O43353 whole entry): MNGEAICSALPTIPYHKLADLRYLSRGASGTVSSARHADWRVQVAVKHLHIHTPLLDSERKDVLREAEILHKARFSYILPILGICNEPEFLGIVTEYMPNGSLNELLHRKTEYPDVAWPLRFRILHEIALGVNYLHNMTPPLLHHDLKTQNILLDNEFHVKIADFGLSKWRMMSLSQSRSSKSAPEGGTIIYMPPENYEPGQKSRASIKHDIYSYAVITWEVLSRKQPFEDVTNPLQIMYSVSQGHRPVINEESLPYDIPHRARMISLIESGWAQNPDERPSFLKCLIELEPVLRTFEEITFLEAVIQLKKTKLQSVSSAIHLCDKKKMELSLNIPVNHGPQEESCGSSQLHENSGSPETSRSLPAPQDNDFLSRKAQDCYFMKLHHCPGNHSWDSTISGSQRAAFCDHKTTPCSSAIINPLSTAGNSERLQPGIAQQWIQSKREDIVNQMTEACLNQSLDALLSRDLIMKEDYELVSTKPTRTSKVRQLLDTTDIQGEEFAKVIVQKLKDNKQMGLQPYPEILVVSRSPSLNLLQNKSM
Test: Inhibition of human RIPK2 assessed as residual activity at 1 uM relative to control
RECORDED_ENDPOINT: Activity (%)

// below: answered molecules
                                 mol_smiles                             target_entity  recorded_endpoint  display_unit  endpoint_result
0  COc1ccc2c(c1)c(/C=C1\C(=O)Nc3ccc(S(=O)(=O)N(C)C)cc31)cn2C  Receptor-interacting serine/threonine-protein kinase 2 (Homo sapiens) (UniProt O43353)           Activity             %               95
1  COc1ccc2c(c1)c(/C=C1\C(=O)Nc3ccc(S(N)(=O)=O)cc31)cn2C  Receptor-interacting serine/threonine-protein kinase 2 (Homo sapiens) (UniProt O43353)           Activity             %               97
2  Cn1cc(/C=C2\C(=O)Nc3ccc(S(N)(=O)=O)cc32)c2ccccc21  Receptor-interacting serine/threonine-protein kinase 2 (Homo sapiens) (UniProt O43353)           Activity             %               84
3  CN(C)S(=O)(=O)c1ccc2c(c1)/C(=C/c1cn(C)c3ccc(O)cc13)C(=O)N2  Receptor-interacting serine/threonine-protein kinase 2 (Homo sapiens) (UniProt O43353)           Activity             %               89

1: CNS(=O)(=O)c1ccc2c(c1)/C(=C/c1cn(C)c3ccc(OC)cc13)C(=O)N2
2: COc1ccc2[nH]cc(/C=C3\C(=O)Nc4ccc(S(N)(=O)=O)cc43)c2c1
Ask: Sorting ascending by Activity, which comes first: 1 or 2 ? State your choice using its label.
Reply: 2
(2: 48%, 1: 100%)
